test.details: NCI Yeast Anticancer Drug Screen. Data for the sgs1 mgt1 strain (AID 161);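 further: 0% = growth of cultures given vehicle only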
reported.conditions: S. cerevisiae sgs1 mgt1 strain, at 50.0 µM, active compounds read high
About 79,000 compounds went through this panel and 15% of them were active in at least one assay; those are over-represented in the sample as a whole.
measured.metric: growth inhibition (%)

[[record]]
molecule = "COc1ccc(/C=C(/C)[N+](=O)[O-])cc1OC"
measured_metric = "growth inhibition"
units_text = "%"
result = 99.3

[[record]]
molecule = "O=C(O)C(O)(c1ccccc1)c1ccco1 (stereo not given)"
measured_metric = "growth inhibition"
units_text = "%"
result = -5.25

[[record]]
molecule = "COc1ccc(CC(C)NO)cc1 (stereo not given)"
measured_metric = "growth inhibition"
units_text = "%"
result = -11.9

[[record]]
molecule = "C=C[CH2][Sn]([CH2]C=C)([CH2]CCC)[CH2]CCC"
measured_metric = "growth inhibition"
units_text = "%"
result = 99.6

[[record]]
molecule = "[C-]#[O+].[C-]#[O+].[C-]#[O+].[C-]#[O+].[Cr].c1ccc([PH+](CC[PH+](c2ccccc2)c2ccccc2)c2ccccc2)cc1"
measured_metric = "growth inhibition"
units_text = "%"
result = -0.9

[[record]]
molecule = "c1cc(C2N3CCCN2CC3)ccn1 (stereo not given)"
measured_metric = "growth inhibition"
units_text = "%"
result = -34

[[record]]
molecule = "CCCCC(CC)CC1C(=O)NC(=S)NC1=O (stereo not given)"
measured_metric = "growth inhibition"
units_text = "%"
result = -17.8

[[record]]
molecule = "CN(C)c1ccccc1"
measured_metric = "growth inhibition"
units_text = "%"
result = 5.35

[[record]]
molecule = "CN(C)C(=O)Sc1c(S(=O)(=O)F)ccc(Cl)c1Cl"
measured_metric = "growth inhibition"
units_text = "%"
result = 10.3

[[record]]
molecule = "CC1OCN2CCCCC12 (stereo not given)"
measured_metric = "growth inhibition"
units_text = "%"
result = -33.4

[[record]]
molecule = "COc1cc2c(cc1OC)C(c1ccc(O)c(O)c1)CNC2 (stereo not given)"
measured_metric = "growth inhibition"
units_text = "%"
result = -31.1

[[record]]
molecule = "NC(Cc1ccccc1)c1nn[nH]n1 (stereo not given)"
measured_metric = "growth inhibition"
units_text = "%"
result = -35.6

[[record]]
molecule = "CN(C)C(=O)Sc1cc(Cl)c(S(=O)(=O)F)cc1Cl"
measured_metric = "growth inhibition"
units_text = "%"
result = 10.7

[[record]]
molecule = "c1ccc(NC2CCN(C3(c4ccccc4)CCCCC3)CC2)cc1"
measured_metric = "growth inhibition"
units_text = "%"
result = -6.85

[[record]]
molecule = "CCOP(=S)(Oc1ccccc1[N+](=O)[O-])c1ccccc1 (stereo not given)"
measured_metric = "growth inhibition"
units_text = "%"
result = 12.6

[[record]]
molecule = "Cc1nc2ccc(Br)cc2c(=O)n1-c1nnc(C(C)(C)C)s1"
measured_metric = "growth inhibition"
units_text = "%"
result = -23.2

[[record]]
molecule = "C[N+](C)(Cc1ccccc1[N+](=O)[O-])c1ccc(N(CCCl)CCCl)cc1"
measured_metric = "growth inhibition"
units_text = "%"
result = -4.2

[[record]]
molecule = "CC(C)[C@]12O[C@H]1[C@@H]1O[C@]13[C@]1(O[C@H]1C[C@H]1C4=C(C(=O)OC4)[C@@H](O)C[C@@]13C)[C@@H]2O"
measured_metric = "growth inhibition"
units_text = "%"
result = 6

[[record]]
molecule = "c1ccc(P2(c3ccccc3)=NSN=S=N2)cc1"
measured_metric = "growth inhibition"
units_text = "%"
result = -8.65

[[record]]
molecule = "CC1(C[N+](C)(C)C)COC(C)(C)O1 (stereo not given)"
measured_metric = "growth inhibition"
units_text = "%"
result = 5.25

[[record]]
molecule = "C[C@]12CC[C@@H](OC(=O)N(CCCl)N=O)C[C@@H]1CC[C@@H]1[C@@H]2CC[C@]2(C)C(=O)CC[C@@H]12"
measured_metric = "growth inhibition"
units_text = "%"
result = 26.5

[[record]]
molecule = "CC1CN=C(NCc2ccccc2)S1 (stereo not given)"
measured_metric = "growth inhibition"
units_text = "%"
result = -33.5

[[record]]
molecule = "O=C(O)c1ccc([N+](=O)[O-])c([N+](=O)[O-])c1"
measured_metric = "growth inhibition"
units_text = "%"
result = 32.9

[[record]]
molecule = "CNC(=O)c1[nH]cnc1/N=N/N(C)N"
measured_metric = "growth inhibition"
units_text = "%"
result = 90.5

[[record]]
molecule = "C1CCC(NC2CCCC2)CC1"
measured_metric = "growth inhibition"
units_text = "%"
result = 32.6


Taken from PubChem BioAssay (NCI).
